- Assayed system: human HSP90 alpha protein (N-terminal, amino acids 2-236) (Homo sapiens (Human), UniProt P07900)
- Assay name: Measurement of HSP90-binding activity (AlphaScreen competitive assay, biotin-labeled geldanamycin)
- Experimental setup: inhibition of biotin-labeled geldanamycin binding to purified HSP90; read-out: HSP-binding activity IC50
Metric: IC50 (nM)

Chemical structure	Reading unit	Reported value
Cn1cc(-c2cn(-c3cccc4c3c(C(F)(F)F)nn4-c3ccc(C(N)=O)cc3N)cn2)cn1	nM	80
CCCc1cn(-c2ccc(C(N)=O)cc2CC)c2cccc(-n3cnc(-c4cnn(C)c4)c3)c12	nM	120
CC(C)Nc1cc(C(N)=O)ccc1-n1nc(C(F)(F)F)c2c(-n3cnc(-c4cnn(C)c4)c3)cccc21	nM	140
Cc1cc(C(N)=O)ccc1-n1nc(C(C)C)c2c(-n3cnc(-c4cccnc4)c3)cccc21	nM	160
CCNc1cc(-n2nc(C(F)(F)F)c3c(-n4cnc(-c5cnn(C)c5)c4)cccc32)ccc1C(N)=O	nM	230
CCc1cc(C(N)=O)ccc1-n1cc(C(C)C)c2c(-n3cnc(-c4cnn(C)c4)c3)cccc21	nM	160

I. CC(C)Nc1cc(C(N)=O)ccc1-n1nc(C(C)C)c2c(-n3cnc(-c4cccnc4)c3)cccc21
II. CC(C)c1nn(-c2ccc(C(N)=O)c(NC(C)(C)C)c2)c2cccc(-n3cnc(-c4cccnc4)c3)c12
III. CCc1cc(C(N)=O)ccc1-n1nc(C(C)C)c2c(-n3cnc(-c4cnn(C)c4)c3)cccc21
IV. Cc1cc(C(N)=O)ccc1-n1nc(C(F)(F)F)c2c(-n3cnc(-c4cccnc4)c3)cccc21
[Q] Please list these in order of increasing IC50. Thank you! Lab note: final answer is the ordered label list.
[A] III, II, I, IV
